Data origin, for the record: BindingDB's records for patent US12291519

Read-out record for Galectin-3 (Homo sapiens): pIC50
Please treat pIC50 as minus the base-10 logarithm of the molar concentration.

Example cases with answers are listed next.
molecule | measured_on | pIC50
O=C([C@@H]1O[C@H](CO)[C@H](O)[C@H](n2cc(-c3cc(F)c(Cl)c(F)c3)nn2)[C@H]1O)N(Cc1ccccc1C(F)(F)F)[C@H]1CCCC[C@@H]1O | Galectin-3 (Homo sapiens) | 7.38
O=C([C@@H]1O[C@H](CO)[C@H](O)C(n2cc(-c3cc(F)c(F)c(F)c3)nn2)[C@H]1OCCO)N(c1cc(Cl)cc(Cl)c1)[C@H]1CCCC[C@@H]1O (some centres undefined) | Galectin-3 (Homo sapiens) | 7.68
COc1cc(-c2cn([C@H]3[C@@H](O)[C@@H](CO)O[C@@H](C(=O)N(c4cc(Cl)cc(Cl)c4)[C@H]4CCCC[C@@H]4O)[C@@H]3OC)nn2)cc(F)c1F | Galectin-3 (Homo sapiens) | 8.05
CO[C@@H]1[C@@H](n2cc(-c3cc(F)c(F)c(F)c3)nn2)[C@@H](O)[C@@H](CO)O[C@H]1C(=O)N(c1cc(Br)cc(C#N)c1)[C@H]1CCCC[C@@H]1O | Galectin-3 (Homo sapiens) | 8.10
COc1cc(-c2cn([C@H]3[C@@H](O)[C@@H](CO)O[C@@H](C(=O)N(c4cc(Cl)cc(C#N)c4)[C@H]4CCCC[C@@H]4O)[C@@H]3OC)nn2)ccc1Cl | Galectin-3 (Homo sapiens) | 7.54
CO[C@@H]1[C@@H](n2cc(-c3cc(F)c(Cl)c(Cl)c3)nn2)[C@@H](O)[C@@H](CO)O[C@H]1C(=O)N(c1cc(Cl)cc(C#N)c1)[C@H]1CCCC[C@@H]1O | Galectin-3 (Homo sapiens) | 7.85
CO[C@@H]1[C@@H](n2cc(-c3cc(F)c(Cl)c(F)c3)nn2)[C@@H](O)[C@@H](CO)O[C@H]1C(=O)N(c1cc(Cl)cc(C#N)c1)[C@H]1CCCC[C@@H]1O | Galectin-3 (Homo sapiens) | 7.72
CO[C@@H]1[C@@H](n2cc(-c3cc(F)cc(F)c3)nn2)[C@@H](O)[C@@H](CO)O[C@H]1C(=O)N(c1cc(Cl)cc(Cl)c1)[C@H]1CCCC[C@@H]1O | Galectin-3 (Homo sapiens) | 7.59

Alright, here's another molecule for you.
IN: Requested read-out: pIC50. Entry: `Cn1cnc(CN(C(=O)[C@@H]2O[C@H](CO)[C@H](O)[C@H](n3cc(-c4cc(F)c(F)c(F)c4)nn3)[C@H]2O)[C@H]2CCCC[C@@H]2O)c1`
OUT: 6.39

###

measured_on: Galectin-1 (Homo sapiens, UniProt P09382)
Sequence (P09382 whole entry): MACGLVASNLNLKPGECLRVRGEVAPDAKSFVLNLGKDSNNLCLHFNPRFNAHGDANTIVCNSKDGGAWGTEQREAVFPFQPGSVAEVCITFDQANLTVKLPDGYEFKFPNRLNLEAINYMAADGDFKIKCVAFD
pIC50: −log10 of the molar value.
Everything with pIC50 lower than 6 is FALSE; everything else, including exactly 6, is TRUE.

Example entries and their recorded answers appear below.
mol_smiles | cat
CO[C@@H]1[C@@H](n2cc(-c3cccc(F)c3)nn2)[C@@H](O)[C@@H](CO)O[C@H]1C(=O)N(c1cc(Br)cc(C#N)c1)[C@H]1CCCC[C@@H]1O | TRUE
COc1cc(-c2cn([C@H]3[C@@H](O)[C@@H](CO)O[C@@H](C(=O)N(c4cc(Cl)cc(Cl)c4)[C@H]4CCCC[C@@H]4O)[C@@H]3OC)nn2)cc(F)c1F | TRUE
Cn1cnc(CN(C(=O)[C@@H]2O[C@H](CO)[C@H](O)[C@H](n3cc(-c4cc(F)c(F)c(F)c4)nn3)[C@H]2O)[C@H]2CCCC[C@@H]2O)c1 | FALSE
CO[C@@H]1[C@@H](n2cc(-c3cc(F)c(F)c(F)c3)nn2)[C@@H](O)[C@@H](CO)O[C@H]1C(=O)N(c1ccc(Cl)c(Cl)c1)[C@H]1CCCC[C@@H]1O | TRUE

IN: Does pIC50 meet or surpass 6 for `O=C([C@@H]1O[C@H](CO)[C@H](O)[C@H](n2cc(-c3cc(F)c(Cl)c(F)c3)nn2)[C@H]1O)N(Cc1ccccc1C(F)(F)F)[C@H]1CCCC[C@@H]1O` ?
OUT: TRUE
